- Test system: PaTu-8988-T
- METHOD_SUMMARY: cells
- Design: ATPlite luminescence viability of PDAC cell lines, 11-dose single-agent curves, 4-parameter fit
- APPLIED_CONDITIONS: Homo sapiens, PaTu 8988t, 72 h, read-out: EC50 [nM]
This listing pairs compounds with measured EC50.

COMPOUND	TARGET_UNDER_TEST	EC50
COc1cc2nccc(Oc3ccc(NC(=O)Nc4cc(C)on4)c(Cl)c3)c2cc1OC [Tivozanib]	PaTu-8988-T	> 10000 nM
Cc1ccc(C(=O)Nc2ccc(CN3CCN(C)CC3)c(C(F)(F)F)c2)cc1C#Cc1cnc2cccnn12 [Ponatinib]	PaTu-8988-T	357 nM
COc1cc(OC)c(/C=C/S(=O)(=O)Cc2ccc(OC)c(NCC(=O)O)c2)c(OC)c1 [Rigosertib]	PaTu-8988-T	607 nM
COc1cc2/c(=N/c3ccc(Br)cc3F)nc[nH]c2cc1OCC1CCN(C)CC1 [Vandetanib]	PaTu-8988-T	> 10000 nM
COc1cc(Nc2ncc(F)c(Nc3ccc4c(n3)N(COP(=O)(O)O)C(=O)C(C)(C)O4)n2)cc(OC)c1OC [Fostamatinib]	PaTu-8988-T	1190 nM
C[C@]12O[C@H](C[C@]1(O)CO)n1c3ccccc3c3c4c(c5c6ccccc6n2c5c31)CNC4=O [Lestaurtinib]	PaTu-8988-T	407 nM
C[C@@H]1CN(C(=O)c2ccc(NC(=O)c3cc(O[C@H](C)c4c(Cl)ccc(F)c4Cl)c(N)nn3)cc2)C[C@H](C)N1 [Ensartinib]	PaTu-8988-T	> 10000 nM
N#CCNC(=O)c1ccc(-c2ccnc(Nc3ccc(N4CCOCC4)cc3)n2)cc1 [Momelotinib]	PaTu-8988-T	> 10000 nM

---

- Tested on: FAMPAC
- METHOD_SUMMARY: cells
- Set-up: ATPlite luminescence viability of PDAC cell lines, 11-dose single-agent curves, 4-parameter fit
- APPLIED_CONDITIONS: 72 h, read-out: EC50 [nM]

MOLECULE	SCALE_UNIT	OPERATOR_SYMBOL	EC50
CN(C)C/C=C/C(=O)Nc1cc2c(Nc3ccc(F)c(Cl)c3)ncnc2cc1O[C@H]1CCOC1 [Afatinib]	nM	>	10000
CC[C@@H]1C(=O)N(C)c2cnc(Nc3ccc(C(=O)N[C@H]4CC[C@H](N5CCN(CC6CC6)CC5)CC4)cc3OC)nc2N1C(C)C [Volasertib]	nM	=	19.9
CCN(CC)CCNC(=O)c1c(C)[nH]c(/C=C2\C(=O)Nc3ccc(F)cc32)c1C [Sunitinib]	nM	=	5670
CCCCCCCCCCCCCCCCCCOP(=O)([O-])OC1CC[N+](C)(C)CC1 [Perifosine]	nM	=	3030
Cc1ccc(C(=O)OCc2ccc([C@@H](CN)C(=O)Nc3ccc4cnccc4c3)cc2)c(C)c1 [Netarsudil]	nM	=	5930
C[C@@H]1COC(Nc2ccc3ncnc(Nc4ccc(OCc5nccs5)c(Cl)c4)c3c2)=N1 [Varlitinib]	nM	>	10000
CN(C)CCCOc1ccc(-c2ccc3ncc4c(c3c2)n(C2CCOCC2)c(=O)n4C)cn1 [AZD-0156]	nM	=	1890
C[C@@H](Oc1cc(-c2cnn(C3CCNCC3)c2)cnc1N)c1c(Cl)ccc(F)c1Cl [Crizotinib]	nM	=	5990
